Entries and their MIC values follow.
test system: Escherichia coli; assay: Antibacterial activity against Escherichia coli expressing A-site methyltransferase ArmA; format: functional
Assay readout: MIC (µg/mL)

Structure as smiles	Target entity	Unit abbreviation	Comparison sign	Result
NC[C@@H]1O[C@H](O[C@H]2[C@@H](O)[C@H](O[C@@H]3[C@@H](O)[C@H](N)C[C@H](N)[C@H]3O[C@H]3O[C@H](CO)[C@@H](O)[C@H](O)[C@H]3N)O[C@@H]2CO)[C@H](N)[C@@H](O)[C@@H]1O	Escherichia coli	µg/mL	=	4
CNCC1=CC[C@H](N)[C@H](O[C@H]2[C@H](O[C@@H]3O[C@H](CO)[C@@H](O[C@@H]4O[C@H](CN)[C@H](O)[C@@H](O)[C@@H]4N)[C@H]3O)[C@@H](O)[C@H](N)C[C@@H]2N)O1	Escherichia coli	µg/mL	=	16
NCC[C@H](O)C(=O)N[C@@H]1C[C@H](N)[C@@H](O[C@H]2O[C@H](CN)[C@@H](O)[C@H](O)[C@H]2O)[C@H](O)[C@H]1O[C@H]1O[C@H](CO)[C@@H](O)[C@H](N)[C@H]1O	Escherichia coli	µg/mL	>	64

---

system: Klebsiella pneumoniae; assay: Antibacterial activity against Klebsiella pneumoniae ATCC 10031; assay type: functional

Compound	Unit abbreviation	Comparison sign	MIC
NCC[C@H](O)C(=O)N[C@@H]1C[C@H](N)[C@@H](O[C@H]2OC(CN)=CC[C@H]2N)[C@H](O[C@@H]2O[C@H](CO)[C@@H](O[C@@H]3O[C@H](CN)[C@H](O)[C@@H](O)[C@@H]3N)[C@H]2O)[C@H]1O	µg/mL	=	0.5
NCC1O[C@H](O[C@H]2[C@@H](O)[C@H](O[C@H]3[C@H](O)[C@@H](N)C[C@@H](N)[C@@H]3O[C@H]3O[C@H](CN)[C@@H](O)[C@H](O)[C@H]3N)O[C@@H]2CO)[C@H](N)[C@@H](O)[C@@H]1O (some centres undefined)	µg/mL	=	0.5
N[C@@H]1CC=C(CO)O[C@@H]1O[C@H]1[C@H](O[C@@H]2O[C@H](CO)[C@@H](O)[C@H]2O)[C@@H](O)[C@H](N)C[C@@H]1N	µg/mL	>	64
NC[C@@H]1O[C@H](O[C@H]2[C@@H](O)[C@H](O[C@@H]3[C@@H](O)[C@H](N)C[C@H](N)[C@H]3O[C@H]3O[C@H](CO)[C@@H](O)[C@H](O)[C@H]3N)O[C@@H]2CO)[C@H](N)[C@@H](O)[C@@H]1O	µg/mL	=	2

---

test system: Pseudomonas aeruginosa; experiment: Antibacterial activity against Pseudomonas aeruginosa expressing ANT(4')-II; format: functional

Molecule	MIC
N[C@@H]1CC=C(CO)O[C@@H]1O[C@H]1[C@H](O[C@@H]2O[C@H](CO)[C@@H](O)[C@H]2O)[C@@H](O)[C@H](N)C[C@@H]1N	> 64 µg/mL
CN[C@@H](C)[C@@H]1CC[C@@H](N)[C@@H](O[C@H]2[C@H](O)[C@@H](O[C@H]3OC[C@](C)(O)[C@H](NC)[C@H]3O)[C@H](N)C[C@@H]2N)O1	2 µg/mL
NCC[C@H](O)C(=O)N[C@@H]1C[C@H](N)[C@@H](O[C@H]2OC(CN)=CC[C@H]2N)[C@H](O[C@@H]2O[C@H](CO)[C@@H](O[C@@H]3O[C@H](CN)[C@H](O)[C@@H](O)[C@@H]3N)[C@H]2O)[C@H]1O	0.5 µg/mL
NCC[C@H](O)C(=O)N[C@@H]1C[C@H](N)[C@@H](O[C@H]2O[C@H](CN)[C@@H](O)[C@H](O)[C@H]2O)[C@H](O)[C@H]1O[C@H]1O[C@H](CO)[C@@H](O)[C@H](N)[C@H]1O	32 µg/mL
NCC1=CC[C@H](N)[C@H](O[C@H]2[C@H](O[C@@H]3O[C@H](CO)[C@@H](O[C@@H]4O[C@H](CN)[C@H](O)[C@@H](O)[C@@H]4N)[C@H]3O)[C@@H](O)[C@H](N)C[C@@H]2N)O1 (stereo in doubt)	1 µg/mL
NCC[C@H](O)C(=O)N[C@@H]1C[C@H](N)[C@@H](O[C@H]2OC(CN)=CC[C@H]2N)[C@H](O[C@@H]2O[C@H](CO)[C@@H](O)[C@H]2O)[C@H]1O	8 µg/mL
NCC[C@H](O)C(=O)N[C@@H]1C[C@H](N)[C@@H](O[C@H]2O[C@H](CN)[C@@H](O)[C@H](O)[C@H]2N)[C@H](O[C@@H]2O[C@H](CO)[C@@H](O)[C@H]2O)[C@H]1O	> 32 µg/mL
NCC1=CC[C@@H](N)[C@@H](O[C@H]2[C@H](O[C@@H]3O[C@H](CO)[C@@H](O)[C@H]3O)[C@@H](O)[C@H](N)C[C@@H]2N)O1	64 µg/mL

These entries and their values trace back to ChEMBL document CHEMBL3779879.
